- Tested On: KRAS G12C::SOS1 protein-protein interaction (Homo sapiens, UniProt P01116, C118S/C51S/C80L/G12C)
- Construct: His6 (N); host or cells: E. coli
- Sequence (P01116 1-169 isoform P01116-2 G12C/C51S/C80L/C118S): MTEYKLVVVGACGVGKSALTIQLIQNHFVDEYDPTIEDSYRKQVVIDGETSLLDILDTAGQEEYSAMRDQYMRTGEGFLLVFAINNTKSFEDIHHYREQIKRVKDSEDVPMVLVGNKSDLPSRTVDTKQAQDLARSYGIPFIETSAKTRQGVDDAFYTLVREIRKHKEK
- Procedure Summary: KRAS::SOS1 AlphaScreen binding assay
- Particulars: KRAS G12C::SOS1 AlphaScreen
pIC50: −log10 of the molar value.
Recorded Metric: pIC50

INSERT INTO results (molecule, recorded_metric, test_result) VALUES
  ('C=CC(=O)N1CCN(c2cc(O[C@@H](C)[C@@H]3CCCN3C)nc(-c3cc([C@@]4(C)CCCc5sc(N)c(C#N)c54)on3)n2)[C@H](C)C1', 'pIC50', 8.80),
  ('C=CC(=O)N1CCN(c2cc(-c3cc([C@@]4(C)CCCc5sc(N)c(C#N)c54)sn3)nc(O[C@@H](C)[C@@H]3CCCN3C)n2)CC1', 'pIC50', 8.77),
  ('C=CC(=O)N1CCN(c2cc(O[C@@H](C)[C@@H]3CCCN3C)nc(-c3cc([C@@]4(C)CCCc5sc(N)c(C#N)c54)no3)n2)CC12CC2', 'pIC50', 8.52),
  ('C=CC(=O)N1[C@H](C)CN(c2cc(O[C@@H](C)[C@@H]3CCCN3C)nc(-c3cc([C@@]4(C)CCCc5sc(N)c(C#N)c54)on3)n2)C[C@@H]1C', 'pIC50', 8.70),
  ('C=CC(=O)N1CCC(Oc2cc(O[C@@H](C)[C@@H]3CCCN3C)nc(-c3cc([C@@]4(C)CCCc5sc(N)c(C#N)c54)sn3)n2)CC1', 'pIC50', 8.80),
  ('C=CC(=O)N1[C@@H](C)CN(c2nc(-c3cc([C@@]4(C)CCCc5sc(N)c(C#N)c54)on3)nc(O[C@@H](C)[C@@H]3CCCN3C)c2Cl)C[C@@H]1C', 'pIC50', 8.40),
  ('C=CC(=O)N1CCC(Oc2cc(O[C@@H](C)[C@@H]3CCCN3C)nc(-c3cc([C@@]4(C)CCCc5sc(N)c(C#N)c54)no3)n2)CC1', 'pIC50', 8.80),
  ('C=CC(=O)N1CCN(c2cc(-c3cc(C4(C)CCCc5sc(N)c(C#N)c54)on3)nc(O[C@@H](C)[C@@H]3CCCN3C)n2)CC1 (stereo partly drawn)', 'pIC50', 8.70);

[a] C=CC(=O)N1CCN(c2cc(O[C@@H](C)[C@@H]3CCCN3C)nc(-c3cc(C4(C)CCCc5sc(N)c(C#N)c54)no3)n2)CC1 (stereo partly drawn)
[b] C=CC(=O)N1[C@H](C)CN(c2cc(O[C@@H](C)[C@@H]3CCCN3C)nc(-c3cc([C@@]4(C)CCCc5sc(N)c(C#N)c54)sn3)n2)C[C@@H]1C
[c] C=C(F)C(=O)N1CCC(Oc2cc(N3CCN(C)C[C@@H]3C)nc(-c3cc(C4(C)CCCc5sc(N)c(C#N)c54)on3)n2)CC1 (stereo partly drawn)
[d] COC/C=C/C(=O)N1CCN(c2cc(O[C@@H](C)[C@@H]3CCCN3C)nc(-c3cc([C@@]4(C)CCCc5sc(N)c(C#N)c54)sn3)n2)CC12CC2
Sequence the entries by pIC50, beginning with the highest number. Sort and list the labels as requested.
b, a, d, c

[P] C=C(F)C(=O)N1CCN(c2cc(O[C@@H](C)[C@@H]3CCCN3C)nc(-c3cc(C4(C)CCCc5sc(N)c(C#N)c54)sn3)n2)CC1 (stereo partly drawn)
[Q] COC/C=C/C(=O)N1CCN(c2cc(O[C@@H](C)[C@@H]3CCCN3C)nc(-c3cc(C4(C)CCCc5sc(N)c(C#N)c54)no3)n2)CC1 (stereo partly drawn)
Field: lower recorded pIC50 (choose P or Q ) Indicate which entry you chose by stating its label.
Q
(Q: 7.54, P: 8.30)

[a] C=CC(=O)N1[C@H](C)CN(c2cc(O[C@@H](C)[C@@H]3CCCN3C)nc(-c3cc([C@@]4(C)CCCc5sc(N)c(C#N)c54)no3)n2)C[C@@H]1C
[b] C=CC(=O)N1CCN(c2cc(O[C@@H](C)[C@@H]3CCCN3C)nc(-c3cc([C@@]4(C)CCCc5sc(N)c(C#N)c54)sn3)n2)CC12CC2
[c] COC/C=C/C(=O)N1CCN(c2cc(O[C@@H](C)[C@@H]3CCCN3C)nc(-c3cc([C@@]4(C)CCCc5sc(N)c(C#N)c54)on3)n2)CC12CC2
Reorder the items by pIC50, least to greatest. Sort and list the labels as requested.
c, a, b
(c: 7.38, a: 8.30, b: 8.77)

[P] C=CC(=O)N1[C@@H](C)CN(c2cc(O[C@@H](C)[C@@H]3CCCN3C)nc(-c3cc([C@@]4(C)CCCc5sc(N)c(C#N)c54)no3)n2)C[C@@H]1C
[Q] C=C(F)C(=O)N1CCC(Oc2cc(O[C@@H](C)[C@@H]3CCCN3C)nc(-c3cc([C@@]4(C)CCCc5sc(N)c(C#N)c54)sn3)n2)CC1
Field: lower recorded pIC50 (choose P or Q ) Indicate which entry you chose by stating its label.
Q

----------
- Tested On: Ba/F3 cells bearing a KRAS G12C mutation (Homo sapiens, UniProt P01116, G12C, cells depend on it)
- Sequence (P01116 whole entry G12C): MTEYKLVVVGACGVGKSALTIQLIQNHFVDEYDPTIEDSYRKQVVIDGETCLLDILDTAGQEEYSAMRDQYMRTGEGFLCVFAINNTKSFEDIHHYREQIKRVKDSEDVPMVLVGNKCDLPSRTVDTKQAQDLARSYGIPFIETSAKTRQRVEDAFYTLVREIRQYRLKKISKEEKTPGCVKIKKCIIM
- Procedure Summary: Ba/F3 cell model proliferation assay (AlamarBlue, 72 h)
- Assay type: cell-based
- Particulars: Ba/F3 KRAS G12C cells, 72 h, 10% FCS, uncorrected; read-out: IC50 Ba/F3 KRASG12C
Recorded Metric: GI50 (nM)

Consider the worked cases shown below.
INSERT INTO measurements (molecule, recorded_metric, unit_text, test_result) VALUES
  ('C=C(F)C(=O)N1[C@@H](C)CN(c2nc(-c3cc([C@@]4(C)CCCc5sc(N)c(C#N)c54)on3)nc(O[C@@H](C)[C@@H]3CCCN3C)c2Cl)C[C@@H]1C', 'GI50', 'nM', 67.9),
  ('C=CC(=O)N1[C@H](C)CN(c2cc(O[C@@H](C)[C@@H]3CCCN3C)nc(-c3cc([C@@]4(C)CCCc5sc(N)c(C#N)c54)on3)n2)C[C@@H]1C', 'GI50', 'nM', 3.9),
  ('C=C(F)C(=O)N1CCN(c2cc(O[C@@H](C)[C@@H]3CCCN3C)nc(-c3cc([C@@]4(C)CCCc5sc(N)c(C#N)c54)on3)n2)[C@H](C)C1', 'GI50', 'nM', 13.1);

[P] C=CC(=O)N1CCC(Oc2cc(N3CCN(C)C[C@@H]3C)nc(-c3cc(C4(C)CCCc5sc(N)c(C#N)c54)no3)n2)CC1 (stereo partly drawn)
[Q] C=CC(=O)N1CCN(c2cc(O[C@@H](C)[C@@H]3CCCN3C)nc(-c3cc([C@@]4(C)CCCc5sc(N)c(C#N)c54)sn3)n2)CC12CC2
Which value of GI50 is numerically greater: that of P or that of Q ? Indicate which entry you chose by stating its label.
P
(P: 35.3 nM, Q: 3.2 nM)

----------
- Procedure Summary: Plasma protein binding (equilibrium dialysis), mouse plasma
- Type: in vitro ADME
- Particulars: read-out: PPB mouse fu
Recorded Metric: fraction unbound

INSERT INTO measurements (molecule, test_result) VALUES
  ('C=CC(=O)N1[C@H](C)CN(c2cc(O[C@@H](C)[C@@H]3CCCN3C)nc(-c3cc([C@@]4(C)CCCc5sc(N)c(C#N)c54)sn3)n2)C[C@@H]1C', 0.003),
  ('C=CC(=O)N1[C@H](C)CN(c2cc(O[C@@H](C)[C@@H]3CCCN3C)nc(-c3cc([C@@]4(C)CCCc5sc(N)c(C#N)c54)on3)n2)C[C@@H]1C', 0.004),
  ('COC/C=C/C(=O)N1CCN(c2cc(O[C@@H](C)[C@@H]3CCCN3C)nc(-c3cc(C4(C)CCCc5sc(N)c(C#N)c54)no3)n2)CC1 (stereo partly drawn)', 0.008),
  ('COC/C=C/C(=O)N1CCN(c2cc(O[C@@H](C)[C@@H]3CCCN3C)nc(-c3cc([C@@]4(C)CCCc5sc(N)c(C#N)c54)on3)n2)[C@H](C)C1', 0.01),
  ('C=C(F)C(=O)N1[C@@H](C)CN(c2cc(O[C@@H](C)[C@@H]3CCCN3C)nc(-c3cc([C@@]4(C)CCCc5sc(N)c(C#N)c54)no3)n2)C[C@@H]1C', 0.003),
  ('C=CC(=O)N1CCN(c2nc(=O)n(-c3c(C)ccnc3C(C)C)c3nc(-c4c(O)cccc4F)c(F)cc23)[C@@H](C)C1 [sotorasib, reference compound]', 0.094);

[P] C=CC(=O)N1[C@@H](C)CN(c2nc(-c3cc([C@@]4(C)CCCc5sc(N)c(C#N)c54)on3)nc(O[C@@H](C)[C@@H]3CCCN3C)c2Cl)C[C@@H]1C
[Q] C=CC(=O)N1CCN(c2cc(O[C@@H](C)[C@@H]3CCCN3C)nc(-c3cc([C@@]4(C)CCCc5sc(N)c(C#N)c54)on3)n2)[C@H](C)C1
Which value of fraction unbound is numerically greater: that of P or that of Q ? Indicate which entry you chose by stating its label.
Q
